- Tested on: plasma TAG
- procedure_text: PK/PD model of plasma TAG after Oral Lipid Tolerance Test (standardized mixed meal)
- measurement_setup: read-out: IC50 (free in vivo IC50, inhibition of exogenous TAG contribution to plasma); human OLTT, free plasma concentration
experimental_endpoint: IC50 (nM)
All answers are understood in nM, so give the number only.

Please look up its IC50: Cc1nc(C)c(-c2ccc(C3CCC(CC(=O)O)CC3)cc2)nc1C(N)=O (stereo not shown) [AZD7687] 7.8

###

- procedure_text: PK model of AZD7687 plasma concentrations during mouse OLTT (1-compartment)
- Format: in vivo
- measurement_setup: male, ICR, plasma, oral, Table 1, free concentrations
experimental_endpoint: clearance
# do not omit the unit; it follows the number

Please look up its clearance: Cc1nc(C)c(-c2ccc(C3CCC(CC(=O)O)CC3)cc2)nc1C(N)=O (stereo not shown) [AZD7687] 36.2 mL/min
